This collection of values is drawn from paper PMC11346435.

Items are presented alongside their recorded pKi.
Target: Rubisco (ribulose-1,5-bisphosphate carboxylase/oxygenase), carbamylated rice enzyme (Oryza sativa)
Construct: gene rbcL; Rubisco purified from rice leaves (cv. Nipponbare), L8S8 complex, carbamylated; with Rubisco small subunit (L8S8 holoenzyme)
Sequence (Q0INY7 47-175, other chains not shown): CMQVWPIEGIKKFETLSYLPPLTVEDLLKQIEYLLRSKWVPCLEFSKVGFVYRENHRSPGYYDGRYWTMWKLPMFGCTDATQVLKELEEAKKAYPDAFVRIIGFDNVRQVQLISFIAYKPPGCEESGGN
Test: biochemical
Design: 14CO2 incorporation by purified activated rice Rubisco; apparent Ki from Michaelis-Menten kinetics
Details: noncompetitive-like; apparent Ki, Eq. 2 (quotient velocity plot); read-out: Ki^app (Eq. 2)
Reminder that pKi means the negative base-10 logarithm of the concentration expressed in mol/L.

O=C(O)[C@@](O)(COP(=O)(O)O)[C@H](O)[C@H](O)CO = 6.36

Query block: Could you please provide reported pKi for "O=C(O)[C@@](O)(COP(=O)(O)O)[C@H](O)[C@H](O)COP(=O)(O)O" ? Thanks!
Result block: 7.00

###

Items are presented alongside their recorded pKi.
Molecular target: Rubisco (ribulose-1,5-bisphosphate carboxylase/oxygenase), carbamylated rice enzyme (Oryza sativa)
Construct: gene rbcL; Rubisco purified from rice leaves (cv. Nipponbare), L8S8 complex, carbamylated; with Rubisco small subunit (L8S8 holoenzyme)
Test: biochemical
Design: 14CO2 incorporation by purified activated rice Rubisco; apparent Ki from Michaelis-Menten kinetics
Conditions: noncompetitive-like; apparent Ki, Eq. 1 (Michaelis-Menten); read-out: Ki^app (Eq. 1)
Reminder that pKi means the negative base-10 logarithm of the concentration expressed in mol/L.

O=C(O)[C@@](O)(COP(=O)(O)O)[C@H](O)[C@H](O)COP(=O)(O)O = 6.92

Note: attention shifts to another entry.
Query block: Could you please provide reported pKi for "O=C(O)[C@@](O)(COP(=O)(O)O)[C@H](O)[C@H](O)CO" ? Thanks!
Result block: 6.36
